Biological target: UniProt O15146
Sequence (O15146 24-869, species assumed): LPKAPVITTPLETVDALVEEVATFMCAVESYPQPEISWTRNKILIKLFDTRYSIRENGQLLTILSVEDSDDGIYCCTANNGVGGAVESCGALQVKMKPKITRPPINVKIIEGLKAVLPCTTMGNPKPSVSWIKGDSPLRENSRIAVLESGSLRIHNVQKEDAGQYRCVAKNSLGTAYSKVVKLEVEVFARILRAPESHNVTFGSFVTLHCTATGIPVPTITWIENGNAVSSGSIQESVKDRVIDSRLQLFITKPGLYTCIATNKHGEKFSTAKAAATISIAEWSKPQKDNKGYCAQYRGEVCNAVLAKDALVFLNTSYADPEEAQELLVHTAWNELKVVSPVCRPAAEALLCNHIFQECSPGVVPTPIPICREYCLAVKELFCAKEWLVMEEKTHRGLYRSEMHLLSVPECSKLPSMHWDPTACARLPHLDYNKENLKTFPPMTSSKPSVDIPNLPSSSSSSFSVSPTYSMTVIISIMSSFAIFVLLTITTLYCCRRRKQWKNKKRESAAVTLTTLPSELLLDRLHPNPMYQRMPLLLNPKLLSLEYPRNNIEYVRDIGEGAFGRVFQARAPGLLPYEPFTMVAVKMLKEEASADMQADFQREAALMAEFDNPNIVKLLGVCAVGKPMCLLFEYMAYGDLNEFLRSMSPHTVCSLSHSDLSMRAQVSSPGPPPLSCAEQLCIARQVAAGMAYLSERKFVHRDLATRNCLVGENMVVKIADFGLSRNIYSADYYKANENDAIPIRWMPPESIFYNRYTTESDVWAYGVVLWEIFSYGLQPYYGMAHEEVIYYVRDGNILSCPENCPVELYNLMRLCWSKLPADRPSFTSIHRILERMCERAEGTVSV
Experiment: Kinase panel (mobility shift)
Type: biochemical
Reported inhibition at 5 µM by item:

| MOLECULE | inhibition at 5 µM |
| --- | --- |
| CSc1nc(C(=O)Nc2ccc(Oc3ccnc(C(=O)NCCN(C)C)c3)c(F)c2)c(-c2ccc(F)cc2)o1 | < 50% |
| CNC(=O)c1cc(Oc2ccc(NC(=O)c3nc(OC)oc3-c3ccc(F)cc3)cc2F)ccn1 | < 50% |
| CSc1nc(C(=O)Nc2ccc(Oc3ccnc(C(=O)NC4CNC4)c3)c(F)c2)c(-c2ccc(F)s2)o1 | < 50% |

Enquiry: Return inhibition at 5 µM (reported value) for this compound: `CNC(=O)c1cc(Oc2ccc(NC(=O)c3nc(OC)oc3-c3ccc(F)s3)cc2F)ccn1`
Return: < 50%

Enquiry: State, in one line, measured inhibition at 5 µM of `CSc1nc(C(=O)Nc2ccc(Oc3ccnc(-c4cnn(C)c4)c3)c(F)c2)c(-c2ccc(F)cc2)o1`
Return: 50 to 79%

Enquiry: Identify the reported inhibition at 5 µM for the following entry. `CNC(=O)c1cc(Oc2ccc(NC(=O)c3nc(OC4CC4)oc3-c3ccc(F)cc3)cc2F)ccn1`
Return: < 50%

Enquiry: Consider the compound `CNC(=O)c1cc(Oc2ccc(NC(=O)c3nc(SC(C)C)oc3-c3ccc(F)cc3)cc2F)ccn1` . State its measured inhibition at 5 µM.
Return: < 50%

Enquiry: Give reported inhibition at 5 µM value for `CNC(=O)c1cc(Oc2ccc(NC(=O)c3nc(C4CC4)oc3-c3ccc(F)cc3)cc2F)ccn1`
Return: 80 to 89%
